Tested on: MCF7
Experiment: cells
Format: functional, cell-based
Conditions: Homo sapiens, MCF7, 72 h
Description: Antiproliferative activity against human MCF7 cells assessed as cell viability after 72 hrs by MTT assay
PROPERTY MEASURED: IC50 (µM)

TEST SMILES | IC50, µM
CCC(=O)Nc1cc(-c2ccc(N3CCN(C(=O)c4cc(Cc5n[nH]c(=O)c6ccccc56)ccc4F)CC3)nc2)cc(C(=O)NCc2c(C)cc(C)[nH]c2=O)c1C | 17.7
Cc1cc(C)c(CNC(=O)c2cc(-c3ccc(N4CCN(C(=O)c5cc(Cc6n[nH]c(=O)c7ccccc67)ccc5F)CC4)nc3)cc(N(C)C)c2C)c(=O)[nH]1 | 38
CC[C@H](C)n1nc(C)c2c(C(=O)NCc3c(C)cc(C)[nH]c3=O)cc(-c3ccc(N4CCNCC4)nc3)cc21 | 19.5
CCCC(=O)Nc1cc(-c2ccc(N3CCN(C(=O)c4cc(Cc5n[nH]c(=O)c6ccccc56)ccc4F)CC3)nc2)cc(C(=O)NCc2c(C)cc(C)[nH]c2=O)c1C | 33.2
Cc1cc(C)c(CNC(=O)c2cc(-c3ccc(N4CCN(C(=O)c5cc(Cc6n[nH]c(=O)c7ccccc67)ccc5F)CC4)nc3)cc(N)c2C)c(=O)[nH]1 | 37.4
C=C(C)C(=O)Nc1cc(-c2ccc(N3CCN(C(=O)c4cc(Cc5n[nH]c(=O)c6ccccc56)ccc4F)CC3)nc2)cc(C(=O)NCc2c(C)cc(C)[nH]c2=O)c1C | 30.1
Cc1cc(C)c(CNC(=O)c2cc(-c3ccc(N4CCN(C(=O)c5cc(Cc6n[nH]c(=O)c7ccccc67)ccc5F)CC4)nc3)cc(NC(=O)CCC(=O)N(C)C)c2C)c(=O)[nH]1 | 30.4
Cc1cc(C)c(CNC(=O)c2cc(-c3ccc(N4CCN(C(=O)c5cc(Cc6n[nH]c(=O)c7ccccc67)ccc5F)CC4)nc3)cc3c2ccn3C(C)C)c(=O)[nH]1 | 47.5
COc1cc(C)c(C(=O)NCc2c(C)cc(C)[nH]c2=O)cc1-c1ccc(N2CCN(C(=O)c3cc(Cc4n[nH]c(=O)c5ccccc45)ccc3F)CC2)nc1 | 44.2

P: Cc1cc(C)c(CNC(=O)c2cc(-c3ccc(N4CCN(C(=O)c5cc(Cc6n[nH]c(=O)c7ccccc67)ccc5F)CC4)nc3)cc3c2cnn3C(C)C)c(=O)[nH]1
Q: CCN(C(C)=O)c1cc(-c2ccc(N3CCN(C(=O)c4cc(Cc5n[nH]c(=O)c6ccccc56)ccc4F)CC3)nc2)cc(C(=O)NCc2c(C)cc(C)[nH]c2=O)c1C
R: CCC(=O)N(CC)c1cc(-c2ccc(N3CCN(C(=O)c4cc(Cc5n[nH]c(=O)c6ccccc56)ccc4F)CC3)nc2)cc(C(=O)NCc2c(C)cc(C)[nH]c2=O)c1C
Task: Sort the compounds on IC50; start with the lowest figure. Ranked list of labels, please, in the requested order.
Output: R, Q, P
